These data points were gathered from paper PMC4351158.

TARGET OR TEST SYSTEM: T1, DegS Q187A/H198P (E. coli, UniProt P0AEE3 27-355, Q187A | H198P)
T1 sequence (looked up): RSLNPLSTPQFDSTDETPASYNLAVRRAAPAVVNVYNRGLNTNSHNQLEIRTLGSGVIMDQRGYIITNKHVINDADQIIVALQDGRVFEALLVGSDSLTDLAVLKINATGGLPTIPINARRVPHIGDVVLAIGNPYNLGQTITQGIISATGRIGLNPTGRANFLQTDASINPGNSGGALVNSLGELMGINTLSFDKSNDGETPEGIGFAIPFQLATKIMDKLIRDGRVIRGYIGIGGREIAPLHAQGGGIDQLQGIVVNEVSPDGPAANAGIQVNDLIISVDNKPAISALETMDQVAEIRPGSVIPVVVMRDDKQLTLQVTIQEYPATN
ASSAY PROTOCOL: fluorescence polarisation
Where no end group is shown, it is not given here. fluorescein = fluorescein, a fluorescent label on the peptide N-terminus
READOUT KIND: pKd
# pKd is unitless: minus log10 of the molar concentration; print number only

Note down pKd recorded for fluorescein-DNRDGNVYYF [fluorescent OMP peptide fluorescein-DNRDGNVYYF]
5.82
